- measured_target: T1, cynomolgus monkey BCMA (cynomolgus monkey, UniProt A0A2K5UD97 1-53)
- T1 construct: Soluble analyte in SPR; construct not described; also called cyBCMA; Cyno BCMA
- T1 sequence (A0A2K5UD97 entry or part of it): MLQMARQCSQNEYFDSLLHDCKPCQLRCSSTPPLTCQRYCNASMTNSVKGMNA
- method_description: SPR, IgG immobilised, 37 C
measured_property: koff

{"columns": ["binder", "meas_value"],
 "data": [
  ["L3.PY/H2.LT (antibody, V domains shown, IgG) VH: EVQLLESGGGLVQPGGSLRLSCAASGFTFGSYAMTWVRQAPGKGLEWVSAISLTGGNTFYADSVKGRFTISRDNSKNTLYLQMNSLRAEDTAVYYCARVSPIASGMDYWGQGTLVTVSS VL: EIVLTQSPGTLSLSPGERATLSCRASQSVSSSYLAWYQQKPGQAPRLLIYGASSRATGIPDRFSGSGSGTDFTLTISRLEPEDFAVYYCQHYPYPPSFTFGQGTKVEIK", "0.00757 s⁻¹"],
  ["L3.PY/L1.PS/H3.AE (antibody, V domains shown, IgG) VH: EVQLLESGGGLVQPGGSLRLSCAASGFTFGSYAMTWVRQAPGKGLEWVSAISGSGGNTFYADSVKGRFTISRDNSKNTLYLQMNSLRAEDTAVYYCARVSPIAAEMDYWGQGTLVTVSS VL: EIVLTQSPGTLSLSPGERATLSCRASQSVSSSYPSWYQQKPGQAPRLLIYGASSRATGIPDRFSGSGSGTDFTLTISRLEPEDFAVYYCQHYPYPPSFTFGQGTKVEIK", "0.00413 s⁻¹"],
  ["L3.PY/L3.KF/P6E01 (antibody, V domains shown, IgG) VH: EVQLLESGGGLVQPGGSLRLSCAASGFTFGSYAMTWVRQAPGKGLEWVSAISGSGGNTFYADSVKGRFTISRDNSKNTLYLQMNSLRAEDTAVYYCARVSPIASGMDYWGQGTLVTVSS VL: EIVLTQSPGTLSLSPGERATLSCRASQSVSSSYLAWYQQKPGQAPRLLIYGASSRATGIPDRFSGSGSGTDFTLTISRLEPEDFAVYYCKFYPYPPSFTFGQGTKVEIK", "0.0083 s⁻¹"]
]}
